assay_details: Half life in Beagle dog at […], iv by LC-MS/MS method
Assay type: ADME, organism-based, Canis lupus familiaris
reported_conditions: in vivo
measurement_label: half-life
State the value with its unit after it.

input: Find the measured half-life of C[C@H]1Cc2c(nnn2-c2ncc(F)cn2)CN1C(=O)c1ccnc(C(F)(F)F)c1F [ZANVIPIXANT] and report it.
output: 21.2 h

* * *

assay_details: AUC in dog at 300 mg/kg, po for 5 days
Type: ADME, organism-based, Canis lupus familiaris
reported_conditions: in vivo
measurement_label: AUC at 120 h (ng·h/mL)
Write the value in ng·h/mL as a bare number.

input: Find the measured AUC at 120 h of `C[C@H]1Cc2c(nnn2-c2ncc(F)cn2)CN1C(=O)c1cccc(C(F)(F)F)c1F` and report it.
output: 78400
